Tested on: 996289-038-R-J1-PDC complex spheroid viability;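 also: spheroids exposed to the agents for 7 days before readout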
test: Anticancer human tumor 996289-038-R-J1-PDC patient-derived colon adenocarcinoma cell line growth inhibition [CLK]
settings: second compound 0.1 µM; first compound 0.03 µM; active compounds read low
// assign label 1 if viability, T/C falls strictly below 50%, else label 0 (ties count as label 0)

Answered cases to consult:
• CC(C)CC(NC(=O)C(Cc1ccccc1)NC(=O)c1cnccn1)B(O)O (stereo unspecified) + CN1CCN(c2cc(C(=O)Nc3cc4cc(-c5cnn(C)c5)ccc4cn3)ccn2)CC1 = label 1
• NC(=O)C(=Cn1cnc(-c2cc(C(F)(F)F)cc(C(F)(F)F)c2)n1)c1cncnc1 + CNC(=O)c1ccc(Nc2nc(OC3CCCC3)c3c(-c4ccc5nc(C)oc5c4)c[nH]c3n2)c(OC)c1 = label 0
• CC(C)CC(NC(=O)C(Cc1ccccc1)NC(=O)c1cnccn1)B(O)O (stereo unspecified) + CNC(=O)c1ccc(Nc2nc(OC3CCCC3)c3c(-c4ccc5nc(C)oc5c4)c[nH]c3n2)c(OC)c1 = label 1
• C=CC(=O)Nc1cc(Nc2nccc(-c3cn(C)c4ccccc34)n2)c(OC)cc1N(C)CCN(C)C + CNC(=O)c1ccc(Nc2nc(OC3CCCC3)c3c(-c4ccc5nc(C)oc5c4)c[nH]c3n2)c(OC)c1 = label 0

Continue with the next molecule.
**Q:** Is the reported viability, T/C for C=CC(=O)Nc1cc(Nc2nccc(-c3cn(C)c4ccccc34)n2)c(OC)cc1N(C)CCN(C)C + CN1CCN(c2cc(C(=O)Nc3cc4cc(-c5cnn(C)c5)ccc4cn3)ccn2)CC1 strictly below 50%?
**A:** label 0

Data origin, for the record: PubChem BioAssay AID2060600
